- method_notes: chemical genetic growth profiling, strain panel (AID 1159580);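 note: tested at 20 µM; growth read once vehicle control cultures reached saturation at 30 °C; 1 = growth at the plate median or of vehicle wells; lower values mean less growth of the strain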
- cond: S. cerevisiae deletion strains, growth OD, locus YFR010W, strain ubp6, hits give low values
Among all 5,500 compounds or so, about 2,000 (36%) were called active. Roughly 18% stayed inconclusive and do not appear here. The list shows a part of the results.

- compound: "CCCc1ncc(C[n+]2ccccc2C)c(N)n1"
  normalized growth: 0.99
- compound: "ClC1C(Cl)C(Cl)C(Cl)C(Cl)C1Cl (stereo not given)"
  normalized growth: 0.983
- compound: "CC(=O)c1ccc[nH]1"
  normalized growth: 1
- compound: "CNC(=O)N(C)c1nnc(C(C)(C)C)s1"
  normalized growth: 0.969
- compound: "CCC[C@@H]1C[C@@H](C(=O)N[C@H]([C@H]2O[C@H](SC)[C@H](O)[C@@H](O)[C@H]2O)[C@H](C)O)N(C)C1"
  normalized growth: 0.974
- compound: "CC(=O)Oc1c(C)c(C)c2c(c1C)CCC(C)(CCCC(C)CCCC(C)CCCC(C)C)O2 (stereo not given)"
  normalized growth: 0.981
- compound: "CC(=O)OC[C@@]1(O)C[C@@]23CCC4c5ccoc5CC[C@]4(C)C2CC[C@@H]1C3 (stereo not given in full)"
  normalized growth: 0.985
- compound: "C[C@H]1C(=O)CCC2[C@]3(C)CC[C@@]4(C)C5CC(C)(C)CC[C@]5(C)CC[C@]4(C)C3CC[C@@]21C (stereo not given in full)"
  normalized growth: 1.01
- compound: "CC(=O)OCC1=C(C(=O)O)N2C(=O)[C@@H](NC(=O)CSc3ccncc3)[C@H]2SC1"
  normalized growth: 1.02
- compound: "O=c1c(O)c(-c2ccccc2)oc2cc(O)ccc12"
  normalized growth: 0.62

====

- method_notes: chemical genetic growth profiling, strain panel (AID 1159580)
- cond: S. cerevisiae deletion strains, growth OD, locus YOR231W, strain MKK1
Screen size: about 5,500 compounds; about 2,000 (36%) were called active. Another 18% or so got no clear call; they are omitted. No stated cut-off is given here; in the data, active means normalized growth mostly below about 0.91 (no sharp cut-off); inconclusive means no clear call, values can overlap the other calls; inactive means mostly above about 0.92. The list shows a part of the results.
Possible outcomes: active, inactive

- molecule: "Cc1oc(C(C)(C)C)cc1-c1cc(NC(=O)c2ccccc2)n[nH]1"
  answer_label: "inactive"
- molecule: "O=C(/C=C/c1ccccc1)c1ccc(O)cc1O"
  answer_label: "active"
- molecule: "CC(=O)c1c(O)cc(O)cc1O"
  answer_label: "inactive"
- molecule: "O=C1C=CC(=O)c2c(O)c(Cl)c(Cl)c(O)c21"
  answer_label: "active"
- molecule: "COc1cc(O)c2c(c1)C(=O)c1cc(C)cc(O)c1C2=O"
  answer_label: "inactive"
- molecule: "C=C(C)C1Cc2c(ccc3c(=O)c4c(oc23)COc2cc(OC)c(OC)cc2-4)O1 (stereo unspecified)"
  answer_label: "inactive"
- molecule: "CC(=O)NS(=O)(=O)c1ccc(N)cc1"
  answer_label: "inactive"
- molecule: "O=C(/C=C/c1ccccc1)c1ccc(O[C@@H]2O[C@H](CO)[C@@H](O)[C@H](O)[C@H]2O)cc1O"
  answer_label: "inactive"
- molecule: "O=C(O)C1=C(CSc2nnnn2CS(=O)(=O)O)CS[C@@H]2C(NC(=O)[C@H](O)c3ccccc3)C(=O)N12 (stereo partly specified)"
  answer_label: "inactive"
- molecule: "Cc1cc2nc3c(Cl)c(O)c4ccccc4c3nc2cc1C"
  answer_label: "inactive"
- molecule: "O=C(/C=C/c1ccc(O)cc1)c1ccccc1O"
  answer_label: "active"

====

Reported normalized growth values for the following compounds.
- method_notes: chemical genetic growth profiling, strain panel (AID 1159580);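 note: tested at 20 µM; growth read once vehicle control cultures reached saturation at 30 °C; 1 = growth at the plate median or of vehicle wells; lower values mean less growth of the strain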
- cond: S. cerevisiae deletion strains, growth OD, locus YPL209C, strain IPL1, hits give low values
Screen size: about 5,500 compounds; about 2,000 (36%) were called active. Not shown: some 18% with an inconclusive outcome. The list shows a part of the results.

- compound: "O=C1c2ccccc2C(=O)c2sccc21"
  normalized growth: 0.684
- compound: "S=C(NCc1cccs1)Nc1cc(Cl)cc(Cl)c1"
  normalized growth: 0.942
- compound: "Cn1cc(Br)c(-c2cccc(NS(=O)(=O)c3ccc(Cl)cc3)c2)n1"
  normalized growth: 0.992
- compound: "S=C(NCCc1csc2ccccc12)Nc1ccc(Cl)cc1"
  normalized growth: 0.946
- compound: "C=CCC1C(=O)N(S(=O)(=O)c2ccc(Cl)cc2)N=C1CCC (stereo unspecified)"
  normalized growth: 0.994
- compound: "COC(=O)c1cccc(NS(=O)(=O)c2ccc(Cl)c(Cl)c2)c1"
  normalized growth: 0.981
- compound: "CC(C)c1cccc(C(C)C)c1OC(=O)NC(=O)c1c(Cl)cccc1Cl"
  normalized growth: 0.991
- compound: "O=C1C(NCc2ccccc2)=C(NCc2ccccc2)C(=O)c2ccccc21"
  normalized growth: 0.934
- compound: "O=C(OCCNc1ccc([N+](=O)[O-])cn1)c1ccc([N+](=O)[O-])o1"
  normalized growth: 0.921
- compound: "FC(F)(F)c1ccncc1-c1nc(-c2ccc(Cl)cc2)cs1"
  normalized growth: 0.987
- compound: "O=C(Nc1cc(Cl)cc(Cl)c1)c1cc(Br)ccc1O"
  normalized growth: 0.945

====

- method_notes: chemical genetic growth profiling, strain panel (AID 1159580);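 note: tested at 20 µM; growth read once vehicle control cultures reached saturation at 30 °C; 1 = growth at the plate median or of vehicle wells; lower values mean less growth of the strain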
- cond: S. cerevisiae deletion strains, growth OD, locus YJL128C, strain PBS2
Screen size: about 5,500 compounds; about 2,000 (36%) were called active. Not shown: some 18% with an inconclusive outcome. Rule as the data show it: active = normalized growth mostly below about 0.91 (no sharp cut-off); inconclusive = no clear call, values can overlap the other calls; inactive = mostly above about 0.92. This is one part of the list.
Possible outcomes: class 1 (active), class 0 (inactive)

- compound: "Cn1ncc(-c2nc(-c3ccc(Cl)cc3)cs2)c1N"
  answer_label: "class 0"
- compound: "FC(F)(F)c1c2c(nc3cc(-c4ccco4)nn13)CCC2"
  answer_label: "class 0"
- compound: "Cc1csc2ncnc(N3CCN(C(=O)Nc4ccc(SC(F)(F)F)cc4)CC3)c12"
  answer_label: "class 0"
- compound: "COC(=O)c1cc(I)c(OC(C)=O)c(I)c1"
  answer_label: "class 0"
- compound: "CCOC(=O)C(O)(c1ccc(NC(=O)c2ccc(Cl)c(Cl)c2)cc1)C(F)(F)F (configuration not stated)"
  answer_label: "class 0"
- compound: "O=C1c2ccccc2C(=O)c2sccc21"
  answer_label: "class 1"
- compound: "CC(=O)c1ccc(Sc2ccccc2)c([N+](=O)[O-])c1"
  answer_label: "class 1"
- compound: "CC(C)(C)c1ccc(-c2cc(NC(=O)c3ccc(Cl)cc3)n[nH]2)cc1"
  answer_label: "class 0"
- compound: "O=C(Nc1ccc(F)cc1F)c1cc(Cl)ccc1O"
  answer_label: "class 0"
- compound: "CCOC(=O)c1ccc(N=Cc2cc(Cl)cc(Cl)c2O)cc1"
  answer_label: "class 0"
- compound: "CCOC(=O)C(NC(=O)c1cccc(Cl)c1)(Nc1nc2ccccc2s1)C(F)(F)F (configuration not stated)"
  answer_label: "class 0"
- compound: "Cc1cc(N=Cc2cc(Cl)cc(Cl)c2O)no1"
  answer_label: "class 0"
- compound: "O=[N+]([O-])c1ccc(NCc2ccc(Cl)c(Cl)c2)nc1"
  answer_label: "class 0"
- compound: "Cc1csc2c(N3CCN(C(=S)Nc4ccc(C(F)(F)F)cc4)CC3)ncnc12"
  answer_label: "class 0"
- compound: "COC(=O)c1cccc(NS(=O)(=O)c2ccc(Cl)c(Cl)c2)c1"
  answer_label: "class 0"
- compound: "O=C(Nc1cc(Cl)cc(Cl)c1)c1cc(Cl)ccc1O"
  answer_label: "class 0"
- compound: "Cn1cc(Br)c(-c2cccc(NS(=O)(=O)c3ccc(Cl)cc3)c2)n1"
  answer_label: "class 0"

====

- method_notes: chemical genetic growth profiling, strain panel (AID 1159580);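 note: tested at 20 µM; growth read once vehicle control cultures reached saturation at 30 °C; 1 = growth at the plate median or of vehicle wells; lower values mean less growth of the strain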
- cond: S. cerevisiae deletion strains, growth OD, locus YDR477W, strain SNF1, hits give low values
In all, about 5,500 compounds went through this assay and about 2,000 (36%) were called active. Roughly 18% stayed inconclusive and do not appear here. This is one part of the list.
normalized growth strictly under 0.8 means true; at 0.8 or over means false.

- molecule_smiles: "O=C1C(NCc2ccccc2)=C(NCc2ccccc2)C(=O)c2ccccc21"
  answer_label: "false"
- molecule_smiles: "COC(=O)c1cccc(NS(=O)(=O)c2ccc(Cl)c(Cl)c2)c1"
  answer_label: "false"
- molecule_smiles: "COc1cc(C2SCCS2)cc(Br)c1OC(=O)NC(=O)c1c(Cl)cccc1Cl"
  answer_label: "false"
- molecule_smiles: "Cc1csc2ncnc(N3CCN(C(=S)Nc4ccc(C(F)(F)F)cc4)CC3)c12"
  answer_label: "false"
- molecule_smiles: "CC(C)Sc1c(Cl)cccc1NC(=O)Nc1ccccc1"
  answer_label: "false"
- molecule_smiles: "O=[N+]([O-])c1ccc(Sc2ccccc2)c([N+](=O)[O-])c1"
  answer_label: "true"
- molecule_smiles: "O=C(/C=C/c1ccc(Cl)cc1)Nc1cccc(Cl)c1"
  answer_label: "false"
- molecule_smiles: "COC(=S)Nc1cc(Cl)cc(Cl)c1"
  answer_label: "true"
- molecule_smiles: "O=C(Nc1cc(Cl)cc(Cl)c1)c1cc(Cl)ccc1O"
  answer_label: "false"
- molecule_smiles: "FC(F)(F)c1ccncc1-c1nc(-c2ccc(Cl)cc2)cs1"
  answer_label: "false"
